Target: HLA-B*58:01
Experiment: IEDB peptide-MHC binding, purified MHC/direct/fluorescence; filed as Kd, often an IC50 or EC50 that approximates it; bounds were set here for any values at or beyond the usual limits of such assays
Conditions: source organism: Vibrio vulnificus CMCP6
quantity-kind: pKd
Units for pKd: none; it is -log10 of a concentration expressed in mol/L.

q: Supply measured pKd of VTFFCVMTY in your reply.
a: 6.95

* * *

Target: HLA-B*46:01
Assay: IEDB peptide-MHC binding, purified MHC/competitive/fluorescence; filed as Kd, often an IC50 or EC50 that approximates it; bounds were set here for any values at or beyond the usual limits of such assays
Conditions: source organism: Orthohantavirus sinnombreense
quantity-kind: Kd

q: Using known records, supply Kd for RTLGVFRYK
a: ≥ 20 µM
